From: patent US12544395B2

- Measurement target: CTX-M-15 (Escherichia coli)
- Sequence (Q9EXV5 entry or part of it): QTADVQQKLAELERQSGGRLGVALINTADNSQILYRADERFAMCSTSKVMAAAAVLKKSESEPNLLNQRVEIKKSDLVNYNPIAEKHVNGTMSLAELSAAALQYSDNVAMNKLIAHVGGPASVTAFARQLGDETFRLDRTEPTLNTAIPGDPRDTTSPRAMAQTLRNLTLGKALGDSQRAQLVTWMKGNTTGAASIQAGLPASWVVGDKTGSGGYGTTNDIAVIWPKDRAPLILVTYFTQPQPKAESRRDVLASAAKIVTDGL
Property measured: Ki

Please give the measured Ki for this compound: CCC(=O)N[C@H]1Cc2cccc(C(=O)O)c2OB1O
10 nM

###

- Assay details: Single ascending dose pharmacokinetics, Solutol HS-15:Water (20:80)
- Type: in vivo, Cynomolgus monkeys
- Conditions: cynomolgus monkey, plasma, iv, 1 mg/kg
Property measured: Cmax (ng/mL)
# number only, unit ng/mL dropped from output

Please give the measured Cmax for this compound: CCC(=O)N[C@H]1Cc2cccc(C(=O)O)c2OB1O
26000

###

- Test system: AmpC/CMY-expressing Enterobacteriaceae (n = 44)
- Assay details: Broth microdilution MIC, ceftibuten/Compound 2 vs IV comparators
- Type: cell-based
- Conditions: AmpC/CMY-expressing (n = 44)
Property measured: Number of strains at MIC value ≤0.06 mg/L

Sample answers from the record:
Nc1nc(/C(=C/CC(=O)O)C(=O)N[C@@H]2C(=O)N3C(C(=O)O)=CCS[C@H]23)cs1 [Ceftibuten, ceftibuten, reference compound] ... 1
NC[C@H]1O[C@H](O[C@H]2[C@H](O)[C@@H](O[C@H]3O[C@H](CO)[C@@H](O)[C@H](N)[C@H]3O)[C@H](N)C[C@@H]2N)[C@H](N)C[C@@H]1O [Tobramycin] ... 0
CN(C)c1cc(NC(=O)CNC(C)(C)C)c(O)c2c1C[C@H]1C[C@H]3[C@H](N(C)C)C(O)=C(C(N)=O)C(=O)[C@@]3(O)C(O)=C1C2=O [Tigecycline] ... 0

With those in mind, consider the next molecule.
Please give the measured Number of strains at MIC value ≤0.06 mg/L for this molecule: C[C@@H](O)[C@H]1C(=O)N2C(C(=O)O)=C(S[C@@H]3CN[C@H](C(=O)N(C)C)C3)[C@H](C)[C@H]12 [Meropenem]
34

###

- Assay details: Excipient screening: solubility in SEDDS excipients
- Assay type: physicochemical
- Conditions: 50 °C, organic solvent or mixture, thermodynamic from solid, Polysorbate 80 (Polyoxyethylene (20) sorbitan monooleate)
Property measured: solubility

Please give the measured solubility for this molecule: CCOB1Oc2c(cccc2C(=O)OCOC(=O)C(CC)CC)C[C@@H]1NC(=O)CC [Compound 1-ethanolate]
> 238 mg/mL

###

- Assay details: Excipient screening: solubility in SEDDS excipients
- Type: physicochemical
- Conditions: Phosal 50 PG (50% PC and propylene glycol), 50 °C, oil or lipid, thermodynamic from solid
Property measured: solubility

Please give the measured solubility for this molecule: CCOB1Oc2c(cccc2C(=O)OCOC(=O)C(CC)CC)C[C@@H]1NC(=O)CC [Compound 1-ethanolate]
> 419 mg/mL

###

- Test system: ESBL-expressing Enterobacteriaceae (n = 33)
- Assay details: Broth microdilution MIC, ceftibuten/Compound 2 vs IV comparators
- Type: cell-based
- Conditions: ESBL-expressing (n = 33)
Property measured: Number of strains at MIC value 2 mg/L
// return a plain number; no unit text

Nc1nc(/C(=C/CC(=O)O)C(=O)N[C@@H]2C(=O)N3C(C(=O)O)=CCS[C@H]23)cs1 [Ceftibuten, ceftibuten, reference compound] ... 2
CN(C)c1cc(NC(=O)CNC(C)(C)C)c(O)c2c1C[C@H]1C[C@H]3[C@H](N(C)C)C(O)=C(C(N)=O)C(=O)[C@@]3(O)C(O)=C1C2=O ... 3
C[C@@H](O)[C@H]1C(=O)N2C(C(=O)O)=C(S[C@@H]3CN[C@H](C(=O)N(C)C)C3)[C@H](C)[C@H]12 ... 1

With those in mind, consider the next compound.
Please give the measured Number of strains at MIC value 2 mg/L for this compound: NC[C@H]1O[C@H](O[C@H]2[C@H](O)[C@@H](O[C@H]3O[C@H](CO)[C@@H](O)[C@H](N)[C@H]3O)[C@H](N)C[C@@H]2N)[C@H](N)C[C@@H]1O
2

###

- Assay details: Metabolic stability in plasma
- Format: in vitro ADME, beagle dog
- Conditions: beagle, plasma; Dog; test conc. 3 μM
Property measured: half-life at 3 μM (min)
# number only, unit min dropped from output

Please give the measured half-life at 3 μM for this molecule: COCC1=C(C(=O)OC(C)OC(=O)OC(C)C)N2C(=O)[C@@H](NC(=O)/C(=N\OC)c3csc(N)n3)[C@H]2SC1 (some centres unmarked) [Cefpodoxime proxetil]
26.2

###

Recorded MIC50 for the following compounds
- System: ESBL-expressing Enterobacteriaceae (n = 33)
# number only, unit µg/mL dropped from output

Nc1nc(/C(=C/CC(=O)O)C(=O)N[C@@H]2C(=O)N3C(C(=O)O)=CCS[C@H]23)cs1 [Ceftibuten, ceftibuten, reference compound] ... 4

With those in mind, consider the next compound.
Please give the measured MIC50 for this compound: CN(C)c1cc(NC(=O)CNC(C)(C)C)c(O)c2c1C[C@H]1C[C@H]3[C@H](N(C)C)C(O)=C(C(N)=O)C(=O)[C@@]3(O)C(O)=C1C2=O
0.5

###

- Assay details: Excipient screening: solubility in SEDDS excipients
- Assay type: physicochemical
- Conditions: Span 80, 50 °C, organic solvent or mixture, thermodynamic from solid, Span 80; 50° C.
Property measured: solubility

Please give the measured solubility for this compound: CCOB1Oc2c(cccc2C(=O)OCOC(=O)C(CC)CC)C[C@@H]1NC(=O)CC [Compound 1-ethanolate]
> 276 mg/mL

###

- Assay details: Metabolic stability in liver S9
- Assay type: in vitro ADME, cynomolgus monkey
- Conditions: cynomolgus, liver S9; Monkey; test conc. 3 μM
Property measured: half-life at 3 μM (min)
# number only, unit min dropped from output

Please give the measured half-life at 3 μM for this compound: COCC1=C(C(=O)OC(C)OC(=O)OC(C)C)N2C(=O)[C@@H](NC(=O)/C(=N\OC)c3csc(N)n3)[C@H]2SC1 (some centres unmarked) [Cefpodoxime proxetil]
4.3

###

- Assay details: Excipient screening: solubility in SEDDS excipients
- Format: physicochemical
- Conditions: 50 °C, oil or lipid, thermodynamic from solid, Plurol Oleique CC497 (Polyglyceryl-3 dioleate)
Property measured: solubility

Please give the measured solubility for this molecule: CCOB1Oc2c(cccc2C(=O)OCOC(=O)C(CC)CC)C[C@@H]1NC(=O)CC [Compound 1-ethanolate]
> 375 mg/mL

###

- Measurement target: CMY-2 (Klebsiella pneumoniae, UniProt Q48434)
- Assay details: Beta-lactamase enzyme inhibition (IC50)
Property measured: pIC50
pIC50 is a log-scale quantity: -log10 of the concentration expressed in molar.

Please give the measured pIC50 for this molecule: CCC(=O)N[C@H]1Cc2cccc(C(=O)O)c2OB1O
7.85

###

- Assay details: Metabolic stability in liver S9
- Assay type: in vitro ADME, CD-1 mouse
- Conditions: CD-1, liver S9; Mouse; test conc. 3 μM
Property measured: half-life at 3 μM

COCC1=C(C(=O)OC(C)OC(=O)OC(C)C)N2C(=O)[C@@H](NC(=O)/C(=N\OC)c3csc(N)n3)[C@H]2SC1 (some centres unmarked) ... 2.4 min

Please give the measured half-life at 3 μM for this compound: CCC(=O)N[C@H]1Cc2cccc(C(=O)O)c2OB1O
> 120 min

###

- Assay details: Excipient screening: solubility in SEDDS excipients
- Type: physicochemical
- Conditions: 50 °C, oil or lipid, thermodynamic from solid, Labrafil M2125C5 (Linoleoyl polyoxyl-6 glycerides)
Property measured: solubility

Please give the measured solubility for this compound: CCOB1Oc2c(cccc2C(=O)OCOC(=O)C(CC)CC)C[C@@H]1NC(=O)CC [Compound 1-ethanolate]
> 152 mg/mL

###

- System: AmpC/CMY-expressing Enterobacteriaceae (n = 44)
- Assay details: Broth microdilution MIC, ceftibuten/Compound 2 vs IV comparators
- Assay type: cell-based
- Conditions: AmpC/CMY-expressing (n = 44)
Recorded Number of strains at MIC value 0.5 mg/L for the following compounds
// return a plain number; no unit text

Sample answers from the record:
CN(C)c1cc(NC(=O)CNC(C)(C)C)c(O)c2c1C[C@H]1C[C@H]3[C@H](N(C)C)C(O)=C(C(N)=O)C(=O)[C@@]3(O)C(O)=C1C2=O [Tigecycline] ... 8
C[C@@H](O)[C@H]1C(=O)N2C(C(=O)O)=C(S[C@@H]3CN[C@H](C(=O)N(C)C)C3)[C@H](C)[C@H]12 [Meropenem] ... 2
NC[C@H]1O[C@H](O[C@H]2[C@H](O)[C@@H](O[C@H]3O[C@H](CO)[C@@H](O)[C@H](N)[C@H]3O)[C@H](N)C[C@@H]2N)[C@H](N)C[C@@H]1O [Tobramycin] ... 2

Please give the measured Number of strains at MIC value 0.5 mg/L for this compound: Nc1nc(/C(=C/CC(=O)O)C(=O)N[C@@H]2C(=O)N3C(C(=O)O)=CCS[C@H]23)cs1 [Ceftibuten, ceftibuten, reference compound]
0

###

- System: AmpC/CMY-expressing Enterobacteriaceae (n = 44)
- Assay details: Broth microdilution MIC, ceftibuten/Compound 2 vs IV comparators
- Type: cell-based
- Conditions: AmpC/CMY-expressing (n = 44)
Property measured: Number of strains at MIC value ≥32 mg/L
// return a plain number; no unit text

Sample answers from the record:
CN(C)c1cc(NC(=O)CNC(C)(C)C)c(O)c2c1C[C@H]1C[C@H]3[C@H](N(C)C)C(O)=C(C(N)=O)C(=O)[C@@]3(O)C(O)=C1C2=O ... 0
Nc1nc(/C(=C/CC(=O)O)C(=O)N[C@@H]2C(=O)N3C(C(=O)O)=CCS[C@H]23)cs1 [Ceftibuten, ceftibuten, reference compound] ... 20
C[C@@H](O)[C@H]1C(=O)N2C(C(=O)O)=C(S[C@@H]3CN[C@H](C(=O)N(C)C)C3)[C@H](C)[C@H]12 ... 0

With those in mind, consider the next molecule.
Under AmpC/CMY-expressing Enterobacteriaceae (n = 44): Number of strains at MIC value ≥32 mg/L value of NC[C@H]1O[C@H](O[C@H]2[C@H](O)[C@@H](O[C@H]3O[C@H](CO)[C@@H](O)[C@H](N)[C@H]3O)[C@H](N)C[C@@H]2N)[C@H](N)C[C@@H]1O ?
28
